Just for reference, patent US20250382363A1 is where these values come from.

# TARGET_ENTITY: T1, human a-PD-L1 Fc (Sino Biological, 10084-H02H, LC11NO2402) (human, UniProt Q9NZQ7 19-239)
# T1 construct: Bought Fc fusion immobilised on the SPR chip; Printed as 'a-PD-L1 Fc' but used as the antigen (ligand) for the anti-PD-L1 scFvs; also called Human PD-L1; not shown: Fc part
# EXPERIMENT: SPR, PD-L1 Fc immobilised, scFv analyte, 1:1 fit
REPORTED_METRIC: n-fold to wt (fold)
Numeric only. Scale: fold

Challenge: Any idea what n-fold to wt was measured for PRO2988 (scFv 37-20-B03-sc09.1_(P48A)) (scFv, PRO2230 variant; VH substitution, AHo numbering; also called PRO2230 P48A) scFv: DIQMTQSPASLSASVGDRVTITCQASQSIGTYLAWYQQKPGKPPKLLIYRAFILASGVPSRFSGSGSGTDFTLTISSLQPEDFATYYCQSNFYSDSTTIGPNAFGTGTKVTVLGGGGGSGGGGSGGGGSGGGGSEVQLVESGGGLVQPGGSLRLSCAASGFSFNSDYWIYWVRQAAGKGLEWIASIYGGSSGNTQYASWAQGRFTISRDNSKNTVYLQMNSLRAEDTAVYFCARGYVDYGGATDLWGQGTLVTVSS ?
Response given: 0.7
